The measured values listed here are drawn from the supplement of paper PMC9112550.

test system: Escherichia coli TOP10; test: shrunken log2 fold change of peptide-encoding DNA abundance (4.5 h post-induction vs induction); higher = less antimicrobial activity (less host growth inhibition); conditions: time post-induction: 4.5 h; library: site-saturation at positions 5, 18, 19, 20
readout: shrunken log2 fold change

| chain | observedValue |
| --- | --- |
| RRIRLRPPRLPRPRPRPLWQPRP | -0.0523 |
| RRIRHRPPRLPRPRPRPFMLPRP | -0.726 |
| RRIRARPPRLPRPRPRPQLDPRP | 0.654 |
| RRIRTRPPRLPRPRPRPKLGPRP | 0.106 |
| RRIRLRPPRLPRPRPRPRSYPRP | -0.227 |

Kindly state the measured shrunken log2 fold change obtained for RRIRMRPPRLPRPRPRPHQSPRP with Escherichia coli TOP10.
-0.318

Kindly state the measured shrunken log2 fold change obtained for RRIRDRPPRLPRPRPRPPQPPRP with Escherichia coli TOP10.
0.387

Kindly state the measured shrunken log2 fold change obtained for RRIRDRPPRLPRPRPRPVHVPRP with Escherichia coli TOP10.
0.0158

====

system: Escherichia coli TOP10; assay: shrunken log2 fold change of peptide-encoding DNA abundance (4.5 h post-induction vs induction); higher = less antimicrobial activity (less host growth inhibition); conditions: time post-induction: 4.5 h; library: site-saturation at positions 5, 18, 19, 20;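 further: peptides expressed intracellularly from a pBAD plasmid library in pooled LB shake-flask culture, induced with 0.3% L-arabinose, DNA abundance read by NGS, three biological replicates, DESeq2 with apeglm shrinkage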
Readings of shrunken log2 fold change for the listed sequences
Output: the number by itself.

| chain | studyTarget | observedValue |
| --- | --- | --- |
| RRIRYRPPRLPRPRPRPLNTPRP | Escherichia coli TOP10 | -0.234 |

Kindly state the measured shrunken log2 fold change obtained for RRIRKRPPRLPRPRPRPYGMPRP with Escherichia coli TOP10.
-0.284

Kindly state the measured shrunken log2 fold change obtained for RRIRERPPRLPRPRPRPMVAPRP with Escherichia coli TOP10.
0.138

Kindly state the measured shrunken log2 fold change obtained for RRIRFRPPRLPRPRPRPWLVPRP with Escherichia coli TOP10.
-0.135

Kindly state the measured shrunken log2 fold change obtained for RRIRIRPPRLPRPRPRPIREPRP with Escherichia coli TOP10.
-0.0273

Kindly state the measured shrunken log2 fold change obtained for RRIRGRPPRLPRPRPRPEPAPRP with Escherichia coli TOP10.
1.69

Kindly state the measured shrunken log2 fold change obtained for RRIRKRPPRLPRPRPRPNQGPRP with Escherichia coli TOP10.
0.079

Kindly state the measured shrunken log2 fold change obtained for RRIRTRPPRLPRPRPRPYKIPRP with Escherichia coli TOP10.
-0.15

Kindly state the measured shrunken log2 fold change obtained for RRIRKRPPRLPRPRPRPAFTPRP with Escherichia coli TOP10.
0.021

Kindly state the measured shrunken log2 fold change obtained for RRIRDRPPRLPRPRPRPGVEPRP with Escherichia coli TOP10.
0.022

Kindly state the measured shrunken log2 fold change obtained for RRIRFRPPRLPRPRPRPMNNPRP with Escherichia coli TOP10.
-0.501

Kindly state the measured shrunken log2 fold change obtained for RRIRLRPPRLPRPRPRPMFCPRP with Escherichia coli TOP10.
-0.752

Kindly state the measured shrunken log2 fold change obtained for RRIRWRPPRLPRPRPRPFHEPRP with Escherichia coli TOP10.
-0.0657

Kindly state the measured shrunken log2 fold change obtained for RRIRERPPRLPRPRPRPETGPRP with Escherichia coli TOP10.
-0.373

Kindly state the measured shrunken log2 fold change obtained for RRIRTRPPRLPRPRPRPYTQPRP with Escherichia coli TOP10.
-0.434
